- Measurement protocol: proliferation blockers of H69AR lung cancer cells, primary screen, cell-based, human, 86K library (AID 598);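 also: multidrug resistant small cell line overexpressing MRP-1 efflux transporter; 100% = mean luminescence of untreated control wells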
- Condition notes: H69AR lung tumor viability, ATP luminescence, 72 h; at 10 µM; active compounds read low
The campaign covered roughly 85,000 compounds. About 5,100 (6%) were called active. What follows is part of a selection rich in actives, with near analogues and random picks from the rest.
Reported endpoint: viability (%)
Numeric answer only, unit % assumed.

molecule="CCc1ccc(C2C(C#N)=C(N)Oc3n[nH]c(CC(=O)OC)c32)cc1 (centres undefined)" reported_endpoint=viability unit_of_measurement=% quantitative_readout=92.7
molecule=O=C(c1cccc(F)c1)N1CCC(O)(c2cccnc2)CC1 reported_endpoint=viability unit_of_measurement=% quantitative_readout=88.1
molecule=CCN(CC)C(=O)CN(c1cccc(OC)c1)S(=O)(=O)c1ccc(C)cc1 reported_endpoint=viability unit_of_measurement=% quantitative_readout=82.3
molecule=c1nnc2c3c4c(sc3ncn12)CCC4 reported_endpoint=viability unit_of_measurement=% quantitative_readout=39
molecule="CCN(CC)C(=O)CC1(c2ccccc2OC)CCOC(C(C)C)C1 (centres undefined)" reported_endpoint=viability unit_of_measurement=% quantitative_readout=86.8
molecule="O=C(NCCCN1CCCCC1)c1ccc2c(c1)NC(=O)C(N1CCOCC1)S2 (centres undefined)" reported_endpoint=viability unit_of_measurement=% quantitative_readout=98.8

Now look at this one.
Please give the measured viability for this molecule: "O=[N+]([O-])c1ccc(Oc2ccc(F)cc2Br)c2ccncc12"
17.6

* * *

- Measurement protocol: proliferation blockers of H69AR lung cancer cells, primary screen, cell-based, human, 86K library (AID 598);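 also: multidrug resistant small cell line overexpressing MRP-1 efflux transporter; 100% = mean luminescence of untreated control wells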
- Condition notes: H69AR lung tumor viability, ATP luminescence, 72 h; at 10 µM; active compounds read low
Hit rate of the full screen: of about 85,000 compounds, about 5,100 (6%) were called active. The sample holds actives, similar compounds and a random draw of the others, so the mix is not that of the screen.
Reported endpoint: viability (%)
Answer in %, number only, no unit symbol.

These recorded examples may help you get a feel for the data.
molecule="O=C(NC1CCCC1)C(c1ccccn1)N(C(=O)c1csnn1)C1CCCC1 (stereo unspecified)" quantitative_readout=81.2
molecule="CCOCN(C(=O)Cn1c(C(C)O)nc2ccccc21)c1c(C)cccc1CC (stereo unspecified)" quantitative_readout=62.8
molecule=CCOC(=O)Cc1csc(NC(=O)CSc2nnc(-c3cccnc3)n2Cc2ccco2)n1 quantitative_readout=100
molecule=O=C(COC(=O)C12CC3CC(CC(C3)C1)C2)NCc1ccco1 quantitative_readout=83.8
molecule=Cc1noc(NS(=O)(=O)c2ccc(N/C=C/C(=O)c3ccccc3)cc2)c1C quantitative_readout=76.1
molecule=CCCc1nnc(NC(=O)c2cccs2)s1 quantitative_readout=102
molecule="Cc1ccc(S(=O)(=O)NCC(C)NS(C)(=O)=O)cc1 (stereo unspecified)" quantitative_readout=95.2
molecule="CC(C)c1ccc(-c2noc(C3CCCN(S(C)(=O)=O)C3)n2)cc1 (stereo unspecified)" quantitative_readout=106

Query (molecule): "O=C(Nc1ccccc1N1CCN(C(=O)c2ccccc2)CC1)c1ccc2c(c1)OCO2" ; field requested: viability
81.8

Which viability is listed for "CCN1CC=C2C(C#N)=C(N)C(C#N)(C#N)[C@H](c3ccoc3)[C@H]2C1" ?
84.8

# get_value(readout='viability', item= "CCOC(=O)c1cnc(SCC(=O)NCc2ccco2)nc1N" )
91.3
